This section presents binders with their documented Tm of the peptide/HLA-A2 complex values.
- Target or test system: HLA-A*02:01 heavy chain / β2-microglobulin (human)
- Experimental protocol: differential scanning fluorimetry

>  <Binder>
ALIHHNTYL [ERBB2 neoantigen peptide …]

>  <Tm of the peptide/HLA-A2 complex>
59.4 °C

$$$$
>  <Binder>
SLADEAEVYL [GAS7 neoantigen peptide …]

>  <Tm of the peptide/HLA-A2 complex>
59.2 °C

$$$$
>  <Binder>
FLSDHLYLV [CDC37L1 neoantigen peptide …]

>  <Tm of the peptide/HLA-A2 complex>
61.8 °C

$$$$
>  <Binder>
ILDKVLVHL [CLPP neoantigen peptide …]

>  <Tm of the peptide/HLA-A2 complex>
57.1 °C

$$$$
>  <Binder>
VVMSWAPPV [FNDC3B neoantigen peptide …]

>  <Tm of the peptide/HLA-A2 complex>
61.6 °C

$$$$
>  <Binder>
TLWCSPIKV [SRPX neoantigen peptide …]

>  <Tm of the peptide/HLA-A2 complex>
63.7 °C

$$$$
